molecular target: hKMT2D SET domain (Homo sapiens); construct: expressing amino acids 5308-5537 of the hKMT2D catalytic SET domain; 6xHis + TEV site (N, cleaved yes); made in house; host or cells: KMT2D Win-SET: Sf21 (baculovirus); H3 peptides bought from Chinese Peptide Company; test: WRAD2 titration: MTase-Glo steady-state substrate matrix experiments; type: biochemical; conditions: [WRAD2] […]; [SET] 125 nM; eq 1; read-out: Kd^(AdoMet)
Experimental readout: pKd
Note on units: pKd is unitless, being -log10 of a concentration expressed in mol/L.

Test system hKMT2D SET domain (Homo sapiens); read-out pKd; what value for C[S+](CC[C@H](N)C(=O)[O-])C[C@H]1O[C@@H](n2cnc3c(N)ncnc32)[C@H](O)[C@@H]1O (stereo partly shown) ?
5.30

###

Biological target: hKMT2D SET domain (Homo sapiens, UniProt O14686)
Construct: expressing amino acids 5308-5537 of the hKMT2D catalytic SET domain; 6xHis + TEV site (N, cleaved yes); made in house; host or cells: KMT2D Win-SET: Sf21 (baculovirus); H3 peptides bought from Chinese Peptide Company
Sequence (Q9UBL3 95-628): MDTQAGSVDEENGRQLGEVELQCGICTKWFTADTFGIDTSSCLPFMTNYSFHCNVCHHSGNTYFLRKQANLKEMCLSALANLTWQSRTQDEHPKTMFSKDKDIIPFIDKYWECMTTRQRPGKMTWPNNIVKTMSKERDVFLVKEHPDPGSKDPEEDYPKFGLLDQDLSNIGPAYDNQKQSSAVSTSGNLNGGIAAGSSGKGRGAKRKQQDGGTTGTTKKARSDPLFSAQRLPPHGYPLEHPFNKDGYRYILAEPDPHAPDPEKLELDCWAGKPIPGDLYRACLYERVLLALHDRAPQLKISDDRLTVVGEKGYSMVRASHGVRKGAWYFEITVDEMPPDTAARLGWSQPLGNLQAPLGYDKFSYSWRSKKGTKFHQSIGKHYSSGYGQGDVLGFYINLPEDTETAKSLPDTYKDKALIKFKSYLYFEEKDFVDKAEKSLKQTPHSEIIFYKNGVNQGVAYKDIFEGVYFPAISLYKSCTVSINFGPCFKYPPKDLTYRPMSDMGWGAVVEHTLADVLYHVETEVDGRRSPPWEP
Sequence (Q9C005 whole entry, further chain, the tested form may be a part): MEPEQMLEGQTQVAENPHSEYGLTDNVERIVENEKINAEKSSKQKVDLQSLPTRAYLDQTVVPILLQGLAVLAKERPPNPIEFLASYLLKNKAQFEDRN
Sequence (O14686 5361-5537): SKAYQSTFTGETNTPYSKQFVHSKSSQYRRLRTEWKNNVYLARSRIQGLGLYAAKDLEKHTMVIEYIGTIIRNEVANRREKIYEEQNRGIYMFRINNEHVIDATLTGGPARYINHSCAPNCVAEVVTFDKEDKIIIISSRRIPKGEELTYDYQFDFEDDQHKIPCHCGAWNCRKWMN
Sequence (Q15291 whole entry, further chain, the tested form may be a part): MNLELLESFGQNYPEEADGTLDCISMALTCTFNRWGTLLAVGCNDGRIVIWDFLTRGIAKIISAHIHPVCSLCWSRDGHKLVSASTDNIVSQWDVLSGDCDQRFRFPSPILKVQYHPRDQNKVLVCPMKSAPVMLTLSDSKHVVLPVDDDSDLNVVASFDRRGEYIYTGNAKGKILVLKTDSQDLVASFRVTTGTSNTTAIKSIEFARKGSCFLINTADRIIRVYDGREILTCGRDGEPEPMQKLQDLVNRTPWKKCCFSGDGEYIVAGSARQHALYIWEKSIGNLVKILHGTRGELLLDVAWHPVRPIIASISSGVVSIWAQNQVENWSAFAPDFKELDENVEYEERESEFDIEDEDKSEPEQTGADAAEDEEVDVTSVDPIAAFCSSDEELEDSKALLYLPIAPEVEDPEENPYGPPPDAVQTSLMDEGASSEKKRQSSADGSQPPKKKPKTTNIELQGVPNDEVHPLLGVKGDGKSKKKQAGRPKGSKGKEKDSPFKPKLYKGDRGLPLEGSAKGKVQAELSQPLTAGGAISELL
Assay: WRAD2 titration: MTase-Glo steady-state substrate matrix experiments
Type: biochemical
Conditions: [WRAD2] 0.125 nM; [SET] 125 nM; eq 1; read-out: Kd^(AdoMet)
Procedure: SET domain activity was monitored with a quantitative endpoint assay determining AdoHcy production using MTase-Glo by Promega.[39] […] Luminescence was measured using an Envision 2101 Multilabel plate reader, and product concentrations were calculated using an AdoHcy standard curve. […] Experiments were performed in triplicate and expressed as the mean ± SD. Data were analyzed using nonlinear regression in GraphPad Prism v9.1. Steady-state rates were measured in substrate matrix experiments. […]
Experimental readout: Kd
The reply must contain the numeric value and, after it, the unit.

Quick one: Kd of C[S+](CC[C@H](N)C(=O)[O-])C[C@H]1O[C@@H](n2cnc3c(N)ncnc32)[C@H](O)[C@@H]1O (stereo partly shown) ?
4.99 µM

###

target: SET/Ash2L/RbBP5 minimal complex (Homo sapiens); construct: 6xHis + TEV site (N); made in house; RbBP5 peptide synthetic, Chinese Peptide Company; test: Substrate matrix experiment with the minimal complex, MTase-Glo; type: biochemical; conditions: read-out: Kd^(AdoMet)
Experimental readout: Kd

Lab note: need Kd with SET/Ash2L/RbBP5 minimal complex (Homo sapiens) for entry C[S+](CC[C@H](N)C(=O)[O-])C[C@H]1O[C@@H](n2cnc3c(N)ncnc32)[C@H](O)[C@@H]1O (stereo partly drawn) [AdoMet, S-adenosyl-L-methionine] , please look it up.
7.63 µM

###

biological target: hKMT2D SET domain (Homo sapiens); construct: expressing amino acids 5308-5537 of the hKMT2D catalytic SET domain; 6xHis + TEV site (N, cleaved yes); made in house; host or cells: KMT2D Win-SET: Sf21 (baculovirus); H3 peptides bought from Chinese Peptide Company; test: WRAD2 titration: MTase-Glo steady-state substrate matrix experiments; assay type: biochemical; details: [WRAD2] 2 nM; [SET] 125 nM; eq 1; read-out: Kd^(AdoMet)
Experimental readout: pKd
In simple prose, pKd is minus the logarithm base ten of a concentration in moles per litre.

Give recorded pKd with hKMT2D SET domain (Homo sapiens) for the following compound: C[S+](CC[C@H](N)C(=O)[O-])C[C@H]1O[C@@H](n2cnc3c(N)ncnc32)[C@H](O)[C@@H]1O (stereo partly shown)
6.21

###

molecular target: SET/WRAD2 complex (Homo sapiens, UniProt O14686); construct: expressing amino acids 5308-5537 of the hKMT2D catalytic SET domain; 6xHis + TEV site (N, cleaved yes); made in house; host or cells: KMT2D Win-SET: Sf21 (baculovirus); H3 peptides bought from Chinese Peptide Company; assay: Product and dead-end inhibitor studies, MTase-Glo; assay type: biochemical; details: varied substrate AdoMet; fixed substrate at 20× KM
Experimental readout: Ki (nM)
Hi! Could you send only the number? It should be in nM, unit omitted.

Entry under review: `Nc1ncnc2c1ncn2[C@@H]1O[C@H](CSCC[C@H](N)C(=O)O)[C@@H](O)[C@H]1O` . Reported Ki?
2290

###

molecular target: hKMT2D SET domain (Homo sapiens); construct: expressing amino acids 5308-5537 of the hKMT2D catalytic SET domain; 6xHis + TEV site (N, cleaved yes); made in house; host or cells: KMT2D Win-SET: Sf21 (baculovirus); H3 peptides bought from Chinese Peptide Company; test: WRAD2 titration: MTase-Glo steady-state substrate matrix experiments; type: biochemical; details: [WRAD2] 25 nM; [SET] 30 nM; eq 1; substrate H3_1–21; read-out: Kd^(AdoMet)
Experimental readout: pKd
pKd here: minus log base 10 of the concentration, concentration in moles per litre.

So what does the record say about pKd for C[S+](CC[C@H](N)C(=O)[O-])C[C@H]1O[C@@H](n2cnc3c(N)ncnc32)[C@H](O)[C@@H]1O (stereo partly shown) ?
6.07

###

molecular target: hKMT2D SET domain (Homo sapiens, UniProt O14686); construct: expressing amino acids 5308-5537 of the hKMT2D catalytic SET domain; 6xHis + TEV site (N, cleaved yes); made in house; host or cells: KMT2D Win-SET: Sf21 (baculovirus); H3 peptides bought from Chinese Peptide Company; test: WRAD2 titration: MTase-Glo steady-state substrate matrix experiments; format: biochemical; conditions: [WRAD2] 0.5 nM; [SET] 125 nM; eq 1; read-out: Kd^(AdoMet)
Experimental readout: pKd
pKd is a log-scale quantity: -log10 of the concentration expressed in molar.

Please report the recorded pKd for C[S+](CC[C@H](N)C(=O)[O-])C[C@H]1O[C@@H](n2cnc3c(N)ncnc32)[C@H](O)[C@@H]1O (stereo partly drawn) [AdoMet, S-adenosyl-L-methionine] .
5.53

###

target: hKMT2D SET domain (Homo sapiens, UniProt O14686); construct: expressing amino acids 5308-5537 of the hKMT2D catalytic SET domain; 6xHis + TEV site (N, cleaved yes); made in house; host or cells: KMT2D Win-SET: Sf21 (baculovirus); H3 peptides bought from Chinese Peptide Company; test: WRAD2 titration: MTase-Glo steady-state substrate matrix experiments; assay type: biochemical; settings: [WRAD2] 1 nM; [SET] 125 nM; eq 1; read-out: Kd^(AdoMet)
Experimental readout: Kd (nM)
The answer is to be given in nM; state only the numeric part.

State the recorded Kd for this entry: C[S+](CC[C@H](N)C(=O)[O-])C[C@H]1O[C@@H](n2cnc3c(N)ncnc32)[C@H](O)[C@@H]1O (stereo partly shown)
1610

###

biological target: hKMT2D SET domain (Homo sapiens, UniProt O14686); construct: expressing amino acids 5308-5537 of the hKMT2D catalytic SET domain; 6xHis + TEV site (N, cleaved yes); made in house; host or cells: KMT2D Win-SET: Sf21 (baculovirus); H3 peptides bought from Chinese Peptide Company; experiment: WRAD2 titration: MTase-Glo steady-state substrate matrix experiments; assay type: biochemical; conditions: [WRAD2] 10 nM; [SET] 30 nM; eq 1; read-out: Kd^(AdoMet)
Experimental readout: Kd
Include the unit after the number when you answer.

Which Kd is reported for this compound? C[S+](CC[C@H](N)C(=O)[O-])C[C@H]1O[C@@H](n2cnc3c(N)ncnc32)[C@H](O)[C@@H]1O (stereo partly shown)
1420 nM

###

biological target: hKMT2D SET domain (Homo sapiens, UniProt O14686); construct: expressing amino acids 5308-5537 of the hKMT2D catalytic SET domain; 6xHis + TEV site (N, cleaved yes); made in house; host or cells: KMT2D Win-SET: Sf21 (baculovirus); H3 peptides bought from Chinese Peptide Company; assay: WRAD2 titration: MTase-Glo steady-state substrate matrix experiments; assay type: biochemical; details: [WRAD2] 0 nM; [SET] 125 nM; eq 1; read-out: Kd^(AdoMet)
Experimental readout: pKd
The meaning of pKd here: minus log10 of the concentration in molar units.

Looking for the measured pKd of C[S+](CC[C@H](N)C(=O)[O-])C[C@H]1O[C@@H](n2cnc3c(N)ncnc32)[C@H](O)[C@@H]1O (stereo partly shown) , can you help?
5.23

###

target: SET/WRAD2 complex (Homo sapiens, UniProt O14686); construct: expressing amino acids 5308-5537 of the hKMT2D catalytic SET domain; 6xHis + TEV site (N, cleaved yes); made in house; host or cells: KMT2D Win-SET: Sf21 (baculovirus); H3 peptides bought from Chinese Peptide Company; test: Product and dead-end inhibitor studies, MTase-Glo; format: biochemical; settings: varied substrate AdoMet; fixed substrate at KM
Experimental readout: Ki (µM)
The answer is to be given in µM; state only the numeric part.

Nc1ncnc2c1ncn2[C@@H]1O[C@H](CSCC[C@H](N)C(=O)O)[C@@H](O)[C@H]1O [AdoHcy, S-adenosyl-L-homocysteine] = 4.95

Continue with the next compound.
Looking for the measured Ki of Nc1ncnc2c1ncn2[C@@H]1O[C@H](C[C@@H](N)CC[C@H](N)C(=O)O)[C@@H](O)[C@H]1O [sinefungin] , can you help?
11
